Test system: rodent lifetime carcinogenesis bioassay, tumor incidence TD50
Protocol Text: carcinogenic potency in animals, long-term in vivo studies, CPDB compilation (AID 1745844)
Condition Context: rat; strain F344/DuCrj; females; in drinking water; site: oral cavity; lesion: squamous-cell carcinoma; dosed 97 weeks; study length 112 weeks

{"Cpd Smiles": "CCOC(=O)N(CC)N=O", "TD50": "0.784 mg/kg/day"}

###

Test system: rodent lifetime carcinogenesis bioassay, tumor incidence TD50
Protocol Text: carcinogenic potency in animals, long-term in vivo studies, CPDB compilation (AID 1745844)
Condition Context: mouse; strain Monohybrid cross offspring of B6CF1 (C57BL/6 x BALB/c); males; in feed; site: pituitary gland; lesion: adenocarcinoma; dosed 147 weeks; study length 158 weeks

{"Cpd Smiles": "CC/C(=C(/CC)c1ccc(O)cc1)c1ccc(O)cc1", "TD50": "4.36 mg/kg/day"}

###

Test system: rodent lifetime carcinogenesis bioassay, tumor incidence TD50
Protocol Text: carcinogenic potency in animals, long-term in vivo studies, CPDB compilation (AID 1745844)
Condition Context: mouse; strain B6C3F1; females; in feed; site: forestomach; lesion: squamous-cell papilloma; dosed 104 weeks; study length 104 weeks

{"Cpd Smiles": "Nc1c(Br)cc(Br)c2c1C(=O)c1ccccc1C2=O", "TD50": "1760 mg/kg/day"}

###

System: rodent lifetime carcinogenesis bioassay, tumor incidence TD50
Protocol Text: carcinogenic potency in animals, long-term in vivo studies, CPDB compilation (AID 1745844)
Condition Context: hamster; strain Syrian Golden; males; by gavage; site: liver; lesion: neoplastic nodule; dosed 58 weeks; study length 61 weeks

{"Cpd Smiles": "CN(C)CCN(Cc1cccs1)c1ccccn1", "TD50 (mg/kg/day)": 150}

###

System: rodent lifetime carcinogenesis bioassay, tumor incidence TD50
Protocol Text: carcinogenic potency in animals, long-term in vivo studies, CPDB compilation (AID 1745844)
Condition Context: mouse; strain OF1; females; in feed; site: any site (literature study); lesion: several types; types named in the paper; dosed 74 weeks; study length 74 weeks
Calls of active or inactive are those of the source. The rule behind the calls is not given here.

{"Cpd Smiles": "CC(C)C[C@H]1C(=O)N2CCC[C@H]2[C@]2(O)O[C@](NC(=O)[C@@H]3C=C4c5cccc6[nH]c(Br)c(c56)C[C@H]4N(C)C3)(C(C)C)C(=O)N12", "TD50": "175 mg/kg/day (inactive)"}

###

Test system: rodent lifetime carcinogenesis bioassay, tumor incidence TD50
Protocol Text: carcinogenic potency in animals, long-term in vivo studies, CPDB compilation (AID 1745844)
Condition Context: rat; strain Fischer 344; males; by gavage; site: any site (literature study); lesion: several types; types named in the paper; dosed 105 weeks; study length 106 weeks
Calls of active or inactive are those of the source. How the calls were made is not given here.

{"Cpd Smiles": "Nc1ccc(NCCO)c([N+](=O)[O-])c1", "Tgt": "rodent lifetime carcinogenesis bioassay, tumor incidence TD50", "TD50": "500 mg/kg/day (inactive)"}

###

System: rodent lifetime carcinogenesis bioassay, tumor incidence TD50
Protocol Text: carcinogenic potency in animals, long-term in vivo studies, CPDB compilation (AID 1745844)
Condition Context: rat; strain Fischer 344; males; by gavage; site: liver; lesion: hepatocellular adenoma + hepatocellular carcinoma; dosed 94 weeks; study length 104 weeks
Quantity: TD50 (mg/kg/day)

{"Cpd Smiles": "ClCC(Cl)CCl", "Unit String": "mg/kg/day", "Observed Result": 23}

###

Tested on: rodent lifetime carcinogenesis bioassay, tumor incidence TD50
Protocol Text: carcinogenic potency in animals, long-term in vivo studies, CPDB compilation (AID 1745844)
Condition Context: mouse; strain B6C3F1; males; inhaled; site: liver; lesion: hepatocellular adenoma + hepatocellular carcinoma + neoplastic nodule; dosed 103 weeks; study length 104 weeks
Quantity: TD50 (mg/kg/day)

{"Cpd Smiles": "ClC(Cl)=C(Cl)Cl", "Tgt": "rodent lifetime carcinogenesis bioassay, tumor incidence TD50", "Unit String": "mg/kg/day", "Observed Result": 190}

###

System: rodent lifetime carcinogenesis bioassay, tumor incidence TD50
Protocol Text: carcinogenic potency in animals, long-term in vivo studies, CPDB compilation (AID 1745844)
Condition Context: rat; strain Fischer 344; males; in feed; site: liver; lesion: hepatocellular adenoma + hepatocellular carcinoma + neoplastic nodule; dosed 103 weeks; study length 104 weeks
Could you mark each record yes if its TD50 falls strictly under 800 mg/kg/day, and no if it equals or exceeds it?

{"Cpd Smiles": "O=[N+]([O-])c1cc(N(CCO)CCO)ccc1NCCO", "Cat": "no"}
{"Cpd Smiles": "N=C1C=CC(=C(c2ccc(N)cc2)c2ccc(N)cc2)C=C1", "Cat": "yes"}
{"Cpd Smiles": "CC(=O)Nc1ccc(N=Nc2cc(C)ccc2O)cc1", "Cat": "no"}
{"Cpd Smiles": "COC(=O)[C@H]1[C@H]2C[C@@H]3c4[nH]c5cc(OC)ccc5c4CCN3C[C@H]2C[C@@H](OC(=O)c2cc(OC)c(OC)c(OC)c2)[C@@H]1OC", "Cat": "yes"}
{"Cpd Smiles": "Cc1ccc(N=Nc2c(O)ccc3ccccc23)c([N+](=O)[O-])c1", "Cat": "no"}

###

Tested on: rodent lifetime carcinogenesis bioassay, tumor incidence TD50
Protocol Text: carcinogenic potency in animals, long-term in vivo studies, CPDB compilation (AID 1745844)
Condition Context: rat; strain Charles River CD (Sprague-Dawley); females; i.p.; site: liver; lesion: several types; types named in the paper; dosed 26 weeks; study length 78 weeks

{"Cpd Smiles": "CN(N=O)C(=O)N[C@@H](C=O)[C@@H](O)[C@H](O)[C@H](O)CO", "TD50 (mg/kg/day)": 4.43}

###

Tested on: rodent lifetime carcinogenesis bioassay, tumor incidence TD50
Protocol Text: carcinogenic potency in animals, long-term in vivo studies, CPDB compilation (AID 1745844)
Condition Context: rat; strain Charles River CD (Sprague-Dawley); females; inhaled; site: mammary gland; lesion: fibroadenoma; dosed 104 weeks; study length 104 weeks
Active and inactive are the calls of the source. How the calls were made is not given here.
Quantity: TD50

{"Compound": "FC(Cl)C(F)(F)F (stereo unspecified)", "Tgt": "rodent lifetime carcinogenesis bioassay, tumor incidence TD50", "Observed Result": "56300 mg/kg/day (inactive)"}

###

Tested on: rodent lifetime carcinogenesis bioassay, tumor incidence TD50
Protocol Text: carcinogenic potency in animals, long-term in vivo studies, CPDB compilation (AID 1745844)
Condition Context: rat; strain F344/DuCrj; males; in feed; site: stomach, glandular; lesion: adenocarcinoma; dosed 72 weeks; study length 96 weeks

{"Cpd Smiles": "Oc1ccccc1O", "Tgt": "rodent lifetime carcinogenesis bioassay, tumor incidence TD50", "TD50": "202 mg/kg/day"}

###

Tested on: rodent lifetime carcinogenesis bioassay, tumor incidence TD50
Protocol Text: carcinogenic potency in animals, long-term in vivo studies, CPDB compilation (AID 1745844)
Condition Context: mouse; strain Swiss albino; females; by gavage; site: liver; lesion: hepatocellular carcinoma; dosed 53 weeks; study length 127 weeks

{"Cpd Smiles": "CC(C)C/C=N/N(C)C=O", "Tgt": "rodent lifetime carcinogenesis bioassay, tumor incidence TD50", "TD50 / mg/kg/day": 74.6}

###

System: rodent lifetime carcinogenesis bioassay, tumor incidence TD50
Protocol Text: carcinogenic potency in animals, long-term in vivo studies, CPDB compilation (AID 1745844)
Condition Context: mouse; strain C57BL/6JfC3Hf/Nctr x BALB/cStCrlfC3Hf/Nctr; females; in drinking water; site: liver; lesion: hepatocellular adenoma; dosed 79 weeks; study length 80 weeks

{"Cpd Smiles": "Nc1ccc(-c2ccc(N)cc2)cc1", "TD50": "41.9 mg/kg/day"}

###

System: rodent lifetime carcinogenesis bioassay, tumor incidence TD50
Protocol Text: carcinogenic potency in animals, long-term in vivo studies, CPDB compilation (AID 1745844)
Condition Context: mouse; strain Charles River CD1; males; by gavage; site: forestomach; lesion: squamous-cell papilloma; dosed 92 weeks; study length 92 weeks

{"Cpd Smiles": "CC[C@H](C)C(=O)O[C@H]1C[C@@H](C)C=C2C=C[C@H](C)[C@H](CC[C@@H]3C[C@@H](O)CC(=O)O3)[C@H]21", "TD50": "8550 mg/kg/day"}

###

Test system: rodent lifetime carcinogenesis bioassay, tumor incidence TD50
Protocol Text: carcinogenic potency in animals, long-term in vivo studies, CPDB compilation (AID 1745844)
Condition Context: mouse; strain Charles River CD1; females; in feed; site: liver; lesion: several types; types named in the paper; dosed 100 weeks; study length 100 weeks
Active and inactive are the calls of the source. The rule behind the calls is not given here.

{"Cpd Smiles": "COc1nn(CSP(=S)(OC)OC)c(=O)s1", "Tgt": "rodent lifetime carcinogenesis bioassay, tumor incidence TD50", "TD50": "16200 mg/kg/day (inactive)"}

###

Tested on: rodent lifetime carcinogenesis bioassay, tumor incidence TD50
Protocol Text: carcinogenic potency in animals, long-term in vivo studies, CPDB compilation (AID 1745844)
Condition Context: rat; strain Fischer 344; females; by gavage; site: uterus; lesion: endometrial stromal sarcoma; dosed 104 weeks; study length 104 weeks

{"Cpd Smiles": "O=P(OCCCl)(OCCCl)OCCCl", "Tgt": "rodent lifetime carcinogenesis bioassay, tumor incidence TD50", "TD50 / mg/kg/day": 589}
